- Tested on: soluble epoxide hydrolase (sEH)
- assay_comment: Fluorescent assay for mouse and human soluble epoxide hydrolase (CMNPC substrate)
- Assay type: biochemical
- reported_conditions: inhibitor at 50 nM; recombinant sEH, CMNPC substrate 5 μM, 30° C., pH 7.0; mouse or human enzyme not given
- Experimental: Fluorescent Assay for Mouse and Human Soluble Epoxide Hydrolase Recombinant mouse sEH (MsEH) and human sEH (HsEH) were produced in a baculovirus expression system as previously reported. […] Protein concentration was quantified using the Pierce BCA assay using bovine serum albumin as the calibrating standard. […] The assay was also evaluated with similar results in crude cell lysates or homogenate of tissues. […] Incubate the plate for 5 minutes in the plate reader at 30° C. […]
result_type: % Inhibition at 50 nM

Incoming: Look up % Inhibition at 50 nM with soluble epoxide hydrolase (sEH) for this compound: CS(=O)(=O)N1CCCC(NC(=O)NC23CC4CC(CC(C4)C2)C3)C1 (stereo not shown)
Outgoing: 76%

Incoming: Form: Entry = O=C(NC1CCCN(S(=O)(=O)c2ccc(Cl)cc2)C1)NC12CC3CC(CC(C3)C1)C2 (stereo not shown) | System = soluble epoxide hydrolase (sEH) | % Inhibition at 50 nM = ____
Outgoing: 94%

Incoming: Missing value: % Inhibition at 50 nM, soluble epoxide hydrolase (sEH), entry O=C(NC1CCCN(S(=O)(=O)c2cccc(C(F)(F)F)c2)C1)NC12CC3CC(CC(C3)C1)C2 (stereo not shown) . Fill in?
Outgoing: 95%

Incoming: Field: % Inhibition at 50 nM (soluble epoxide hydrolase (sEH)). Entry: CC(=O)N1CCCC(NC(=O)NC23CC4CC(CC(C4)C2)C3)C1 (stereo not shown)
Outgoing: 69%
